Data provenance: patent EP3390415B1

Assignment: determine reported concentration at 1 hr for the given molecules.
# experiment-description: Pharmacokinetics (TK) after 30-min IV infusion in monkeys
# Assay type: in vivo, Cynomolgus monkeys
# protocol-conditions: cynomolgus monkey, plasma; male, 1 hr; 2 mg/kg 30-min IV infusion; read-out: Plasma concentration
# Protocol: TH 3423 and TH 3424 were tested in no naive monkeys (1 male and one female for each compound at 2 mg/kg) with 30-min intravenous infusion, TK sampling: on Day 1 and Day 15: 0.25, 0.5, 0.75, 1 and 2 hr post infusion initiation. Serum chemistry and hematology: pre-dose (Day 1), day 5, day 8 (pre-dose), day 15 (pre-dose), day 22 and day 28. Clinical observation: Daily during the study, total 35 days. Food consumption: Daily during the study, total 35 days. […]
Answer with a number only, understood to be in ng/mL.

Item C[C@@H](OP(=O)(N1CC1)N1CC1)c1ccc([N+](=O)[O-])c(Oc2cccc(C(=O)N(C)C)c2)c1 (single isomer, unassigned) has what recorded concentration at 1 hr?
85

Look up concentration at 1 hr for this molecule: C[C@H](OP(=O)(N1CC1)N1CC1)c1ccc([N+](=O)[O-])c(Oc2cccc(C(=O)N(C)C)c2)c1 (single isomer, unassigned)
260
